From: paper PMC6271338

Test system: MCF-7 cells
Assay: In vitro anti-proliferative SRB assay, MCF-7
Assay type: cell-based, human
Settings: selectivity index, L02 vs MCF7
Under this convention, true denotes SI (CC50 L02/IC50 MCF7) strictly below 3 and false denotes SI (CC50 L02/IC50 MCF7) at or above 3.

COc1cccc(OC)c1/C=C/C(=O)c1ccc(O)cc1 :: true
COc1cccc(C(=O)/C=C/c2c(OC)cccc2OC)c1 :: true
COc1cccc(OC)c1/C=C/C(=O)c1ccc(Cl)c(Cl)c1 :: false

## Input Does this compound meet the criterion SI (CC50 L02/IC50 MCF7) < 3? "COc1cccc(OC)c1/C=C/C(=O)c1ccc(-c2ccccc2)cc1"
## Output false

## Input Consider the compound "COc1cccc(OC)c1/C=C/C(=O)c1ccc(C)c(C)c1" . Is its SI (CC50 L02/IC50 MCF7) strictly less than 3?
## Output true

###

System: A549 cells
Experiment: In vitro anti-proliferative SRB assay, A549
Format: cell-based, human
Conditions: selectivity index, L02 vs A549
measuredProperty: SI (CC50 L02/IC50 A549)
No unit in the answer, only the number.

COc1cccc(OC)c1/C=C/C(=O)c1ccc(O)cc1 :: 1.2
COc1ccc(OC)c(C(=O)/C=C/c2c(OC)cccc2OC)c1 :: 4.1
COc1ccc(C(=O)/C=C/c2cc(OC)cc(OC)c2)cc1 :: 0.4
COc1cccc(OC)c1/C=C/C(=O)c1cccc(Br)c1 :: 2.4
CCOc1ccccc1C(=O)/C=C/c1c(OC)cccc1OC :: 5.4

## Input Given "CCOc1cc(OC)ccc1C(=O)/C=C/c1c(OC)cccc1OC" , state its recorded SI (CC50 L02/IC50 A549).
## Output 1.2

## Input Which SI (CC50 L02/IC50 A549) value belongs to "COc1cccc(OC)c1/C=C/C(=O)c1cccc(O)c1" ?
## Output 1.5

## Input Request the reported SI (CC50 L02/IC50 A549) associated with "COc1cccc(OC)c1/C=C/C(=O)c1cccc(Cl)c1"
## Output 2.9

###

Experiment: Cytotoxicity (SRB) against non-tumoral HMLE cells
Type: cell-based, human
Conditions: human, HMLE cells (non-tumoral human mammary epithelial cells); increasing concentrations up to 100 μM; mean ± SD of at least three independent experiments; read-out: Normal Human Cell Lines, CC50, HMLE
measuredProperty: CC50 at 48 h (µM)
Unit µM implied. Number only.

Illustrative cases are given below, each with its answer.
COc1cc([C@@H]2c3cc4c(cc3[C@@H](O[C@@H]3O[C@@H]5CO[C@@H](C)O[C@H]5[C@H](O)[C@H]3O)[C@H]3COC(=O)[C@H]23)OCO4)cc(OC)c1O [Etoposide, reference compound] :: 6.42
COc1cccc(OC)c1/C=C/C(=O)c1ccc(O)cc1 [b26] :: 12.6
CCOc1ccc(C(=O)/C=C/c2c(OC)cccc2OC)cc1OC [b16] :: 9.15
COc1cccc(OC)c1/C=C/C(=O)c1ccc(C)c(C)c1 [b5] :: 15.7
COc1cccc(OC)c1/C=C/C(=O)c1ccccc1C [b2] :: 15

## Input Query: CC50 at 48 h; subject: COc1cccc(OC)c1/C=C/C(=O)c1ccc(Cl)cc1 [b35]
## Output 17.7

## Input Using the record for CCOc1ccc(C(=O)/C=C/c2c(OC)cccc2OC)cc1 [b10] , report its CC50 at 48 h.
## Output 13.8

## Input Requested field: CC50 at 48 h. Item: COc1ccc(C(=O)/C=C/c2cc(OC)cc(OC)c2)cc1 [a16]
## Output 3.28

## Input Data request, read-out CC50 at 48 h, for COc1cccc(OC)c1/C=C/C(=O)c1ccc(F)cc1 [b33]
## Output 12.7

## Input What does the record list as CC50 at 48 h for COc1cccc(OC)c1/C=C/C(=O)c1ccccc1OCc1ccccc1 [b11] ?
## Output 21

## Input I have this compound here, COc1ccc(C(=O)/C=C/c2c(OC)cccc2OC)cc1OC [b19] , and I need its recorded CC50 at 48 h.
## Output 10.5

## Input Quick check: CC50 at 48 h of COc1cccc(OC)c1/C=C/C(=O)c1ccc(C#N)cc1 [b30] ?
## Output 12.6

## Input Looking for the measured CC50 at 48 h of COc1cccc(C(=O)/C=C/c2c(OC)cccc2OC)c1 [b7] , can you help?
## Output 8.14

## Input // returns reported CC50 at 48 h for input COc1cccc(OC)c1/C=C/C(=O)c1ccc(Cl)cc1Cl [b37]
## Output 19.8

## Input What measured CC50 at 48 h goes with CCOc1ccccc1C(=O)/C=C/c1c(OC)cccc1OC [b8] ?
## Output 0.83

## Input Quick check: CC50 at 48 h of COc1cccc(OC)c1/C=C/C(=O)c1ccc2c(c1)CCO2 [b21] ?
## Output 14.6

## Input CC50 at 48 h for COc1cccc(OC)c1/C=C/C(=O)c1cccc(N)c1 [b23] ?
## Output 11.4

## Input For the compound COc1cccc(OC)c1/C=C/C(=O)c1ccc2c(c1)OCO2 [b20] , what CC50 at 48 h is on record?
## Output 14.2
